Species on record: Cavia porcellus
protocol: Tested in vitro for tracheal relaxation
Assay type: functional
condition.parameters: Trachea
pEC50: −log10 of the molar value.
measurement.label: pEC50

Solved entries (count: 5):
**Q:** For CCCN1C(=O)N2CCN=C2c2ncn(CCC)c21 , write its pEC50.
**A:** 6.00

**Q:** For CCCn1cnc2c1c1nccn1c(=O)n2CCC , write its pEC50.
**A:** 6.15

**Q:** For CCCn1cnc2c1n(CCC)c(=O)n1nnnc21 , write its pEC50.
**A:** 4.17

**Q:** For CCCn1cnc2c1c1nnnn1c(=O)n2CCC , write its pEC50.
**A:** 4.29

**Q:** For CCCN1C(=O)N2CCCCN=C2c2[nH]cnc21 , write its pEC50.
**A:** 4.28

P = CCCn1c(=O)n2ccnc2c2[nH]cnc21
Q = CCCN1C(=O)N2CCCN=C2c2[nH]cnc21
R = CCCN1C(=O)N2CCCN=C2c2c1ncn2CCC
**Q:** Parameters: sort_field (pEC50), sort_dir (desc). Please list each label once, in the requested order.
**A:** P, R, Q
(P: 5.80, R: 5.09, Q: 4.66)
